SUBJECT OF TEST: ntd-HSP90 mutant T149C/I187C tagged with CLaNP-5 (Homo sapiens, UniProt P07900, I187C/T149C)
Construct: Three double cysteine mutants of the ntd-HSP90 were designed on the surface of the protein; CLaNP-5 (chemical lanthanoid chelate with Lu3+ or Yb3+, attached to the two engineered Cys); made in house
MEASUREMENT NOTES: NMR methyl 13C-1H HSQC titration fitted with TITAN, 1:1 binding model
MEASUREMENT CONTEXT: mutant 149C/187C, CLaNP-5 tagged; five methyl groups; range of values from repeated global fits; 298 K, pH 7.7; read-out: KD
QUANTITY NAME: Kd

# input Given Nc1nccc(-c2ccccc2F)n1 , respond with its Kd.
# output 41 to 45 µM
